Values compiled from paper PMC5540273.

system: TBK1; conditions: concentration: 1 μM, replicates: in singlicate; n = 1;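 further: KINOMEscan kinase panel screen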
QUANTITY: %Inh (%)

SMILES_STRUCTURE | QUANTITY | OBSERVED_RESULT
O=C(Nc1n[nH]c2nc(-c3cccc(O)c3)ccc12)C1CC1 | %Inh | 23
CCOc1nccc(-c2c(-c3ccc(F)cc3)ncn2C2CCNCC2)n1 | %Inh | 23
COc1cccc2c(-c3ccncc3)c(-c3ccc(F)cc3)nn12 | %Inh | 2
Cn1cc(-c2ccc3c(c2)CCN3C(=O)Cc2cc(F)cc(C(F)(F)F)c2)c2c(N)ncnc21 | %Inh | 21
CN(C)CCOc1ccc(-c2cc(-c3ccc(Cl)c(O)c3)c(-c3ccncc3)[nH]2)cc1.Cl.Cl | %Inh | 28
CN(C)c1ncnc2nc[nH]c12 | %Inh | 34
Cn1cc(-c2cnc(N)c3c(-c4ccc5c(c4)CCN5C(=O)Cc4ccccc4)csc23)cn1 | %Inh | 23
Nc1ncc(-c2cn[nH]c2)c2scc(-c3ccc4c(c3)CCN4C(=O)Cc3ccccc3)c12 | %Inh | 1
Cl.N#CCc1ccc(Nc2nccc(Nc3ccc(Oc4ccccc4)cc3)n2)cc1 | %Inh | 6

###

system: MARK3; details: concentration: 1 μM, replicates: in singlicate; n = 1
QUANTITY: %Inh (%)

COMPOUND | ASSAYED_TARGET | OBSERVED_RESULT
Cc1ccc(C)c(NC(=O)Nc2ccc(C)c(-c3ccc(C(=O)Nc4ccncc4)cc3)c2)c1 | MARK3 | 0
O=C(Nc1n[nH]c2cc(-c3cccs3)ccc12)C1CC1 | MARK3 | 0
Cc1cc(-c2ccnc(Nc3cccc(C#N)c3)n2)cc(C)c1O | MARK3 | 0
Nc1cccc(-c2ccc3c(N)n[nH]c3c2)c1 | MARK3 | 0
Cc1ccc(NC(=O)c2cccc(N3CCCCC3)c2)cc1-c1ccc(C(=O)NCC2CC2)cc1 | MARK3 | 20
CN(C)CCOc1ccc(-c2cc(-c3ccc(Cl)c(O)c3)c(-c3ccncc3)[nH]2)cc1.Cl.Cl | MARK3 | 14
COC(=O)Nc1nc2ccc(Oc3ccc(NC(=O)Nc4cc(C(F)(F)F)ccc4F)cc3)cc2[nH]1.Cl | MARK3 | 0
CC(C)c1nc(-c2cccc(NS(=O)(=O)c3c(F)cccc3F)c2)c(-c2ccnc(Nc3ccc(N4CCOCC4)nc3)n2)s1.Cl | MARK3 | 0
CCNC(=O)/C=C/c1n[nH]c2cc(Sc3ccccc3C(=O)NC)ccc12 | MARK3 | 0
O=C1NC(=O)C(c2ccccc2Cl)=C1Nc1cccc(Cl)c1 | MARK3 | 2
Cc1ccc(NC(=O)c2ccnc(N3CCCCC3)c2)cc1-c1ccc(C(=O)NCC2CC2)cc1 | MARK3 | 0
O=C(O)C(F)(F)F.O=c1[nH]ccc2nc(N[C@@H]3CCNC3)nc(Nc3cc(Cl)cc(Cl)c3)c12 | MARK3 | 85
COc1ccc(NC(=O)c2ccoc2)cc1-c1ccc(C(=O)NCC2CC2)cc1 | MARK3 | 47
CN1CCN(Cc2ccc(NC(=O)Nc3ccc(N(C)c4ccnc(Nc5ccc(CS(C)(=O)=O)cc5)n4)cc3)cc2)CC1.Cl | MARK3 | 61
Cl.N#CCc1ccc(Nc2nccc(Nc3ccc(Oc4ccccc4)cc3)n2)cc1 | MARK3 | 0
Cc1ccc(O)cc1Nc1ccnc2cc(-c3ccc(CN4CCCCC4)o3)ccc12 | MARK3 | 0
Cc1cc(-c2c(-c3ccc(F)cc3)ncn2CCCN2CCOCC2)nc(N)n1 | MARK3 | 0
COc1cccc(CC(=O)N2CCc3cc(-c4cn(C)c5ncnc(N)c45)ccc32)c1 | MARK3 | 7
CC(=O)Nc1cn2nc(Oc3cccc(NC(=O)c4cccc(C(F)(F)F)c4)c3)ccc2n1 | MARK3 | 8
CCn1c(-c2nonc2N)nc2c(-c3ccccc3)ncc(OCCCN)c21.O=C(O)C(F)(F)F.O=C(O)C(F)(F)F | MARK3 | 0
CN(c1ccc(F)c(NC(=O)c2cccc(OC(C)(C)C#N)c2Cl)c1)c1ccc2nc(NC(=O)C3CC3)sc2n1 | MARK3 | 0
O=C(Nc1n[nH]c2nc(-c3cccc(O)c3)ccc12)C1CC1 | MARK3 | 0
c1ccc(Oc2ccc(Nc3ccnc4cc(-c5ccc(CN6CCCCC6)o5)ccc34)cc2)nc1 | MARK3 | 0
Cn1cc(-c2ccc3c(c2)CCN3C(=O)Cc2cc(F)cc(C(F)(F)F)c2)c2c(N)ncnc21 | MARK3 | 0
Fc1cc(Cl)ccc1Nc1ccnc2cc(-c3ccc(CN4CCOCC4)o3)ccc12 | MARK3 | 2
CC(C)NCC(Cc1ccccc1)NC(=O)c1cc(Br)c(-c2ccnc3[nH]ccc23)s1.Cl.Cl (centres unmarked) | MARK3 | 60
Cn1cc(-c2cnc(N)c3c(-c4ccc5c(c4)CCN5C(=O)Cc4ccccc4)csc23)cn1 | MARK3 | 0
Nc1ncc(-c2ccc3nccc(-c4ccncc4)c3c2)cc1S(=O)(=O)N1CCCCC1 | MARK3 | 0
O=C(Nc1c(F)cccc1F)c1cc(C(=O)c2ccccc2F)c[nH]1 | MARK3 | 3
NCCC(NC(=O)c1cc(Br)c(-c2ccnc3[nH]ccc23)s1)c1ccccc1.O=C(O)C(F)(F)F.O=C(O)C(F)(F)F (centres unmarked) | MARK3 | 0
CCOc1nccc(-c2c(-c3ccc(F)cc3)ncn2C2CCNCC2)n1 | MARK3 | 0
Fc1cc(Cl)ccc1Nc1ccnc2cc(-c3ccc(CN4CCSCC4)o3)ccc12 | MARK3 | 0
O=C(Nc1n[nH]c2nc(-c3ccccc3)ccc12)C1CC1 | MARK3 | 0
Cc1nn2c(=O)cc(N3CCO[C@H](C)C3)nc2n1Cc1cccc(Cl)c1Cl | MARK3 | 0
CN(C)c1ncnc2nc[nH]c12 | MARK3 | 23

###

test system: TXK; details: concentration: 1 μM, replicates: in singlicate; n = 1
Measured %Inh, listed per entry for reference.
QUANTITY: %Inh (%)

SMILES_STRUCTURE | OBSERVED_RESULT
Cn1cc(-c2cnc(N)c3c(-c4ccc5c(c4)CCN5C(=O)Cc4ccccc4)csc23)cn1 | 9
COc1cccc(CC(=O)N2CCc3cc(-c4cn(C)c5ncnc(N)c45)ccc32)c1 | 0
CCOc1nccc(-c2c(-c3ccc(F)cc3)ncn2C2CCNCC2)n1 | 10
Nc1ncc(-c2cn[nH]c2)c2scc(-c3ccc4c(c3)CCN4C(=O)Cc3ccccc3)c12 | 30

###

system: IKK-alpha; construct: gene CHUK; conditions: concentration: 1 μM, replicates: in singlicate; n = 1
Measured %Inh, listed per entry for reference.

SMILES_STRUCTURE | %Inh / %
COc1ccc(NC(=O)c2ccoc2)cc1-c1ccc(C(=O)NCC2CC2)cc1 | 0
Nc1cccc(-c2ccc3c(N)n[nH]c3c2)c1 | 0
COC(=O)Nc1nc2ccc(Oc3ccc(CC(=O)Nc4cc(C(F)(F)F)ccc4F)cc3)cc2[nH]1 | 7
COC(=O)Nc1nc2ccc(Oc3ccc(NC(=O)Nc4cc(C(F)(F)F)ccc4F)cc3)cc2[nH]1.Cl | 72
COc1cccc2c(-c3ccncc3)c(-c3ccc(F)cc3)nn12 | 0
COc1ccc(C2=C(Nc3cccc(O)c3)C(=O)NC2=O)cc1 | 26
O=C(O)C(F)(F)F.O=c1[nH]ccc2nc(N[C@@H]3CCNC3)nc(Nc3ccc4c(c3)S(=O)(=O)CC4)c12 | 87
CCn1c(-c2nonc2N)nc2c(-c3ccccc3)ncc(OCCCN)c21.O=C(O)C(F)(F)F.O=C(O)C(F)(F)F | 32

###

test system: STK36; settings: concentration: 1 μM, replicates: in singlicate; n = 1

COMPOUND | UNIT | %Inh
Cc1ccc(C)c(NC(=O)Nc2ccc(C)c(-c3ccc(C(=O)Nc4ccncc4)cc3)c2)c1 [GSK1398473] | % | 2
COc1ccc(C)c(Nc2ccnc(Nc3ccc(-c4cnc[nH]4)cc3)n2)c1.Cl [GW784041] | % | 36
N#Cc1cnc2cc(-c3cnc(CNCCN4CCOCC4)s3)ccc2c1Nc1ccc(Oc2ccccc2)cc1 [GW664114] | % | 7
Cc1ccccc1CC(=O)N1CCc2cc(-c3cn(C)c4ncnc(N)c34)ccc21 [GSK2603346] | % | 0
Cc1cc(-c2c(-c3ccc(F)cc3)ncn2CCCN2CCOCC2)nc(N)n1 [SB-222517] | % | 18
CC(C)c1nc(-c2cccc(NS(=O)(=O)c3c(F)cccc3F)c2)c(-c2ccnc(Nc3ccc(N4CCOCC4)nc3)n2)s1.Cl [GSK1723980] | % | 100
CN(c1ccc(NC(=O)Nc2cccc(Cl)c2)cc1)c1ccnc(N)n1.Cl [GW830707] | % | 0
CCNC(=O)/C=C/c1n[nH]c2cc(Sc3ccccc3C(=O)NC)ccc12 | % | 35
Cn1cc(-c2ccc3c(c2)CCN3C(=O)Cc2cc(F)cc(C(F)(F)F)c2)c2c(N)ncnc21 [GSK2635225] | % | 19
Nc1ncc(-c2ccc3nccc(-c4ccncc4)c3c2)cc1S(=O)(=O)N1CCCCC1 [GSK1693850] | % | 0
Cc1ccc(O)cc1Nc1ccnc2cc(-c3ccc(CN4CCCCC4)o3)ccc12 [GW557777] | % | 0
CN(c1ccc2c(c1)nc(NCc1ccccc1)n2C)c1ccnc(Nc2ccc(CS(C)(=O)=O)cc2)n1.Cl [GW811603] | % | 0
NCCC(NC(=O)c1cc(Br)c(-c2ccnc3[nH]ccc23)s1)c1ccccc1.O=C(O)C(F)(F)F.O=C(O)C(F)(F)F (stereo not shown) [GSK1307810] | % | 0
CC(=O)Nc1cn2nc(Oc3cccc(NC(=O)c4cccc(C(F)(F)F)c4)c3)ccc2n1 | % | 0
Cn1cc(-c2cnc(N)c3c(-c4ccc5c(c4)CCN5C(=O)Cc4ccccc4)csc23)cn1 [GSK2593074] | % | 0
Cl.N#CCc1ccc(Nc2nccc(Nc3ccc(Oc4ccccc4)cc3)n2)cc1 [GW639905] | % | 0
